All figures here come from PubChem BioAssay (NCI).

# Tested on: CAKI-1 renal
# protocol.description: NCI tumour cell line growth inhibition, 48 h; in the data active means GI50 below about 0.43 µM; inactive means the rest
Select the matching outcome among active, inactive

As a guide, the following entries are already answered.
molecule: O=C(CSc1nc2ccc([N+](=O)[O-])cc2[nH]1)Nc1ccc([N+](=O)[O-])cc1
target.under.test: CAKI-1 renal
label: inactive

molecule: COc1ccc2c(c1)OC(N)=C(C#N)C2c1ccc(F)c(F)c1 (centres undefined)
target.under.test: CAKI-1 renal
label: active

molecule: O=C(NCCCNc1cc(-c2cn(-c3ccccc3)nc2-c2cccc(O)c2)ccn1)c1ccc(F)cc1
target.under.test: CAKI-1 renal
label: inactive

# lookup: test call for COc1c(O)cc2c(c1CC=C(C)C)OC(=O)c1c(cc(O)c(CC=C(C)C)c1O)O2 inactive

* * *

# Tested on: SK-MEL-5 melanoma
# protocol.description: NCI tumour cell line growth inhibition, 48 h
parameter: TGI

chem.smiles: COc1ccc2c(c1)C(=O)/C(=C/c1ccccc1)C2
parameter: TGI
result.value: > 100 µM
--
chem.smiles: Cc1cc2c(=O)cc(-c3ccc(O)cc3)oc2c(C(=O)O)c1C
parameter: TGI
result.value: > 100 µM

Cc1ccc(C)c(N2C(=O)C(=O)C(c3nc4ccccc4s3)C(=O)C2=O)c1 has a reported TGI of > 100 µM

* * *

# Tested on: SNB-19 CNS
# protocol.description: NCI tumour cell line growth inhibition, 48 h
In this section we review reported TGI values for a set of compounds.

Worked examples, 2 compounds total:
compound: Nc1cc2c(c3ccccc13)C(CCl)CN2C(=O)c1cc2cc(NC(=O)c3cc4ccccc4o3)ccc2[nH]1 (stereo not drawn)
TGI: 0.408 µM

compound: CC(=O)Nc1ccc(S(=O)(=O)N/N=C/c2cc(I)cc([N+](=O)[O-])c2O)cc1
TGI: > 100 µM

Kindly consider the entry below.
S=C1NC(c2ccccc2)=NC(Cc2ccccc2)(c2ccccc2)N1c1ccccc1 (stereo not drawn) has a reported TGI of > 100 µM

* * *

# Tested on: SNB-75 CNS
# protocol.description: NCI tumour cell line growth inhibition, 48 h
In this section we review reported TGI values for a set of compounds.

compound: O=C(Nn1c(-c2ccccc2)nc2ccccc2c1=O)c1ccc([N+](=O)[O-])cc1
parameter: TGI
result.value: > 100 µM

compound: S=C1NC(c2ccccc2)=NC(Cc2ccccc2)(c2ccccc2)N1c1ccccc1 (stereo not given)
parameter: TGI
result.value: 57.1 µM

N#Cc1nc(N)c(C#N)[nH]1 has a reported TGI of > 100 µM

C#CCOCCCC(=O)O has a reported TGI of > 100 µM

Cn1c(=O)oc2cc(C(=O)CN3CCN(Cc4ccc5c(c4)OCO5)CC3)c(Cl)cc21 has a reported TGI of > 100 µM

* * *

# Tested on: 786-0 renal
# protocol.description: NCI tumour cell line growth inhibition, 48 h
parameter: TGI

Worked examples, 3 compounds total:
compound: Cc1cc(N(C)C)ccc1N=Nc1ccc2ncccc2c1
parameter: TGI
result.value: > 100 µM
//
compound: O=C(O)c1cc(C(=O)C(=O)c2cc(C(=O)O)c(O)c3ccccc23)c2ccccc2c1O
parameter: TGI
result.value: > 100 µM
//
compound: COc1cc2c(OC)c3cc(C)oc(=O)c3c(O)c2c(O)c1-c1c(OC)cc2c(OC)c3cc(C)oc(=O)c3c(O)c2c1O
parameter: TGI
result.value: 60.8 µM

// TGI (786-0 renal) for CC(C)(Cl)C(Br)CCC(=CCBr)CBr (mixture of isomers) = 3.17 µM

// TGI (786-0 renal) for O=C(CSc1nc(-c2ccccc2)c(-c2ccccc2)[nH]1)N/N=C/c1ccc([N+](=O)[O-])cc1 = 30.5 µM

// TGI (786-0 renal) for Nc1ccc(-c2nnc(-c3c(Cl)c(Cl)c(Cl)c(Cl)c3-c3nc4ccc(C(=O)c5ccccc5)cc4[nH]3)o2)cc1 = 36.1 µM

// TGI (786-0 renal) for CC(=O)N[C@@H](Cc1ccc(OP(=O)(O)O)cc1)C(=O)N[C@H]1CCC(=O)N2CCC[C@@H](C(=O)NCc3cccc4ccccc34)N2C1=O = > 25 µM

// TGI (786-0 renal) for C=CC(C)(C)c1c(OC)oc2ccc(OC)c(C)c2c1=O = > 100 µM

// TGI (786-0 renal) for CN(CC(=O)O)S(=O)(=O)c1ccc(Cl)cc1 = > 100 µM

// TGI (786-0 renal) for O=C1NC(=N[C@@H]2C[C@H]2c2ccccc2)S/C1=C\c1ccc2ncccc2c1 = 6.01 µM

* * *

In this section we review reported TGI values for a set of molecules.
# Test system: NCI-H522 lung
# protocol.description: NCI tumour cell line growth inhibition, 48 h

Worked examples, 3 molecules total:
molecule: CC1NC(=O)c2c(-c3ccccc3)nn(-c3ccccc3)c2NC1=O (stereo unspecified)
target.under.test: NCI-H522 lung
result.value: > 100 µM
--
molecule: [N-]=[N+]=NCC(=O)c1c[nH]c(=O)[nH]c1=O
target.under.test: NCI-H522 lung
result.value: > 100 µM
--
molecule: CCOC(=O)Nc1nc(-c2ccccc2)c(C)s1
target.under.test: NCI-H522 lung
result.value: > 100 µM

// TGI (NCI-H522 lung) for S=c1sc2sc(=S)sc2s1 = > 100 µM

// TGI (NCI-H522 lung) for O=C(O)[C@@]1(Cc2ccc(O)cc2)C[C@@H]2Cc3ccccc3N2N1 = > 100 µM

// TGI (NCI-H522 lung) for CCC(CO)COC(=O)/C=C/C(=O)OCC(CC)CO (stereo unspecified) = > 100 µM

* * *

# Test system: PC-3 prostate
# protocol.description: NCI tumour cell line growth inhibition, 48 h
parameter: TGI

Worked examples, 5 compounds total:
compound: Cc1ccc([I+]c2ccc(C)cc2)cc1
parameter: TGI
result.value: > 100 µM
//
compound: CC(=O)OC12c3ccccc3C(c3ccccc31)C1C(=O)N(Nc3ccccc3)C(=O)C12 (stereo unspecified)
parameter: TGI
result.value: > 100 µM
//
compound: O=C(Nn1c(-c2ccccc2)nc2ccccc2c1=O)c1ccc([N+](=O)[O-])cc1
parameter: TGI
result.value: > 100 µM
//
compound: N=C(N)SCCSC(=N)N
parameter: TGI
result.value: > 100 µM
//
compound: CC(=O)N[C@@H](Cc1ccc(OP(=O)(O)O)cc1)C(=O)N[C@H]1CCC(=O)N2CCC[C@@H](C(=O)NCc3cccc4ccccc34)N2C1=O
parameter: TGI
result.value: > 25 µM

COc1ccc(-c2nc(SCC(=O)N/N=C/c3ccc([N+](=O)[O-])cc3)[nH]c2-c2ccc(OC)cc2)cc1 has a reported TGI of > 100 µM

* * *

In this section we review reported TGI values for a set of molecules.
# Tested on: HOP-62 NSCLC
# protocol.description: NCI tumour cell line growth inhibition, 48 h

Worked examples, 2 molecules total:
molecule: Cc1ccc(C2=NN=C3C(c4ccccc4)=Nc4ccccc4N3C2)cc1
result.value: > 63.8 µM
--
molecule: CN1CCC2(CC1)C(=O)N(NC(N)=O)C(=O)C2c1ccccc1 (stereo not drawn)
result.value: > 100 µM

Cc1cc2c(=O)cc(-c3ccc(C(=O)O)cc3)oc2c(C(N)=O)c1C has a reported TGI of > 100 µM

* * *

# System: HL-60(TB) leukemia
# protocol.description: NCI tumour cell line growth inhibition, 48 h
In this section we review reported TGI values for a set of molecules.

Worked examples, 3 molecules total:
molecule: Cc1ccccc1C(C#N)/C(=N/NC(N)=S)C(=O)Nc1c(C)cccc1C (stereo not given)
TGI: > 100 µM
//
molecule: Cc1cnc2cc(Cl)ccc2c1NCCN(CC(C)C)CC(C)C
TGI: > 100 µM
//
molecule: O=C(CSc1nc2ccc([N+](=O)[O-])cc2[nH]1)Nc1ccc([N+](=O)[O-])cc1
TGI: > 25.7 µM

// TGI (HL-60(TB) leukemia) for CC(=O)Nc1ccc(S(=O)(=O)N/N=C/c2cc(I)cc([N+](=O)[O-])c2O)cc1 = > 100 µM

// TGI (HL-60(TB) leukemia) for COc1ccc(C(=O)O[C@@H]2CCN3CC[C@H](C)[C@H]23)cc1 = > 100 µM

* * *

# System: MOLT-4 leukemia
# protocol.description: NCI tumour cell line growth inhibition, 48 h
In this section we review reported TGI values for a set of molecules.

molecule: CNc1cccc(-c2cc(=O)c3cc4c(cc3[nH]2)OCO4)c1
TGI: > 20.9 µM
//
molecule: Cc1ccc(C2=NN=C3C(c4ccccc4)=Nc4ccccc4N3C2)cc1
TGI: > 35.5 µM
//
molecule: CCN1CCC(O)(/C=C/c2cccc(C)c2)C(C(=O)/C=C/c2cccc(C)c2)C1 (stereo unspecified)
TGI: > 21.5 µM
//
molecule: CCOC(=O)c1c2c(n(Cc3ccccc3)c1C)-c1nc[nH]c1C(=O)C2=O
TGI: 10.3 µM
//
molecule: O=C1C2=C(c3ccccc31)C(c1ccccc1Cl)NC(=S)N2 (stereo unspecified)
TGI: > 100 µM
//
molecule: C=CC(C)(C)c1c(OC)oc2ccc(OC)c(C)c2c1=O
TGI: > 100 µM
//
molecule: Cn1c(=O)oc2cc(C(=O)CN3CCN(Cc4ccc5c(c4)OCO5)CC3)c(Cl)cc21
TGI: > 100 µM
//
molecule: OC1CCC(COC(c2ccccc2)(c2ccccc2)c2ccccc2)O1 (stereo unspecified)
TGI: 35.2 µM
//
molecule: COc1cc2c3c(n(CCCNC(C)(C)CO)c(=O)c2cc1OC)-c1cc2c(cc1C3=O)OCO2
TGI: 0.11 µM
//
molecule: CCNc1nc2c(=O)n(C)c(=O)n(C)c2s1
TGI: > 100 µM

// TGI (MOLT-4 leukemia) for O=C(O)COc1ccc2c3c1C(=O)CCC3CO2 (stereo unspecified) = > 100 µM

// TGI (MOLT-4 leukemia) for CCOc1ccc(N=C2NC(=O)C(CC(=O)Nc3ccc(Cl)cc3Cl)S2)cc1 (stereo unspecified) = > 100 µM
